In this section we review reported self-cleavage values for a set of variants.
B1: Hairpin Ribozyme (parent)
chain: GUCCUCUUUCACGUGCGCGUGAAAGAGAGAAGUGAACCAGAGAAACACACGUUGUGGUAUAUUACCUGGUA

- Variants of: B1
- ASSAY NOTES: self-cleavage, relative activity (ratio to wild type); higher = more cleavage; co-transcriptional
# respond with the number and nothing more

The reported value for C4G U5C in terms of self-cleavage is 0.112

The reported value for G19C C38A in terms of self-cleavage is 0.174

The reported value for A26G U67A in terms of self-cleavage is 0.148

The reported value for U52A G69A in terms of self-cleavage is 0.464

The reported value for G15C A31G in terms of self-cleavage is 0.692

More entries:
The reported value for U20A G40C in terms of self-cleavage is 0.0677

The reported value for A26U A71C in terms of self-cleavage is 1.19

The reported value for U7C A28U in terms of self-cleavage is 0.514

The reported value for G17A A41G in terms of self-cleavage is 0.833

The reported value for U2A U67G in terms of self-cleavage is 0.158

The reported value for U2A G32A in terms of self-cleavage is 0.0985
